B1: KRT33B (parent)
chain: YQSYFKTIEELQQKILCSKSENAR

Variants of: B1
Test: protein stability index of a GFP-peptide fusion (GPS, HEK-293T) (PSI 1-6); higher = more stable;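 note: lentivirally expressed fusions sorted by FACS into six bins by GFP to DsRed ratio, PSI derived from sequencing read proportions per bin multiplied by bin number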
Settings: c terminus: a fixed tail appended
test_readout: protein stability index

| mutation_key | test_readout | reported_result |
| --- | --- | --- |
| Q2T | protein stability index | 1.76 |
| K14A | protein stability index | 1.53 |
| K14V | protein stability index | 1.65 |
| A23L | protein stability index | 1.73 |
| Y4L | protein stability index | 1.92 |
| K19T | protein stability index | 2.3 |
| I8A | protein stability index | 2.44 |
| K19G | protein stability index | 2.08 |
| N22P | protein stability index | 1.46 |
| K6M | protein stability index | 1.8 |
| C17Y | protein stability index | 1.61 |
